Origin of values: paper PMC7064531

# measuredTarget: T1, E6AP AZUL (amino-terminal zinc-binding domain of ubiquitin E3a ligase), amino acids 24 to 87 (human, UniProt Q05086 24-87)
# T1 chain: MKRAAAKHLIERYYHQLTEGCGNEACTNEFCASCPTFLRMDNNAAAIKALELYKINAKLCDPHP
# experimentSummary: ITC; Y326 phosphorylated
Where no end group is shown, it is not given here. [ ]: non-standard residue; d: D form. pY = N[C@@H](Cc1ccc(OP(=O)(O)O)cc1)C(=O)O
propertyMeasured: Kd
Field: value (include unit after the number)

Q: Bench note: what Kd did EEDD[pY]DVMQDPEFLQSVLENLPGVDPNNEAIRNAMGSLASQATKD (not fully specified) [hRpn10^322–366 peptide with Y326 phosphorylated] show?
A: 189 nM
